Value source: ChEMBL document CHEMBL1131095

Please go through the items and note down their IC50.
target: UniProt P25103; experiment: Binding affinity was measured against the Tachykinin receptor 1 in CHO-expressed hNK1 using [125I]SP.
Sequence (P25103 whole entry): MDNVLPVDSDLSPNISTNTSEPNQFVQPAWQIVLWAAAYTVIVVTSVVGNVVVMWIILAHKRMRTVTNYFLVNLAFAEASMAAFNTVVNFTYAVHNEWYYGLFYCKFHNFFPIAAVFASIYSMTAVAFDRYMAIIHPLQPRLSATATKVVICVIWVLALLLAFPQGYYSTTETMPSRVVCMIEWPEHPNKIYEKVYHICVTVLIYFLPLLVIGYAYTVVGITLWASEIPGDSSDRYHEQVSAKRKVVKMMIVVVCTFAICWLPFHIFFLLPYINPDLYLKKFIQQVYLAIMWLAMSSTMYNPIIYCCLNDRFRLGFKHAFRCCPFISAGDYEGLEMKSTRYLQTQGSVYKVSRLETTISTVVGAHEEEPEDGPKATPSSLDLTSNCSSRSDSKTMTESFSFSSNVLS
Record the result as a number with its unit.

Molecule: N[C@H](COCc1cccc(Cl)c1)C(c1ccccc1)c1ccccc1
Reported Value: 75.9 nM

Report IC50 for every entry below.
1. FC(F)(F)c1cc(COCC2(c3ccccc3)CCCCN2)cc(C(F)(F)F)c1 (stereo not given)
2. O=C1O[C@@H](Cc2c[nH]c3ccccc23)C(=O)N1Cc1cc(C(F)(F)F)cc(C(F)(F)F)c1
3. FC(F)(F)c1cc(COCC2(c3ccccc3)CCCNC2)cc(C(F)(F)F)c1 (stereo not given)
4. FC(F)(F)c1cc(CN[C@H]2C3CCN(CC3)[C@H]2C(c2ccccc2)c2ccccc2)cc(C(F)(F)F)c1

Result block:
["1 nM", "25.7 nM", "20 nM", "2 nM"]
